Where do these numbers come from? They come from patent US20240262815A1.

Tested on: SK-BR-3 cancer cells
experimentalProtocol: Inhibitory activity against proliferation of SK-BR-3 cancer cells (CellTiter-Glo)
Assay type: cell-based
condition: Homo sapiens, SK-BR-3, 120 h, ErbB2-overexpressing SK-BR-3 cells, 120 hours after treatment
Kindly supply the reported GI50 values for the records listed here.

# input molecule: "C=CC(=O)Nc1cc(Nc2cc(N3OCC[C@@H]3c3cccc(-c4ccccc4)c3)ncn2)c(OC)cc1N(C)CCN(C)C" ; wanted: its GI50
< 50 nM

And the next one, C=CC(=O)Nc1cc(Nc2cc(N3OCCC3c3cccc(-c4cccs4)c3)ncn2)c(OC)cc1N1CCC(N2CCN(C3CC3)CC2)CC1 (stereo not shown) ?
< 50 nM

And the next one, C=CC(=O)Nc1cc(Nc2cc(N3OCCC3c3cccc(OCc4ccccn4)c3)ncn2)c(OC)cc1N1CCC(N2CCN(C3CC3)CC2)CC1 (stereo not shown) ?
< 50 nM

And the next one, "C=CC(=O)Nc1cc(Nc2cc(N3OCC[C@@H]3c3cccc(-c4cccc(C(F)(F)F)c4F)c3)ncn2)c(OC)cc1N1CCN(C)CC1" ?
50 to 500 nM

And the next one, "C=CC(=O)Nc1cc(Nc2cc(N3OCC[C@@H]3c3cccc(-c4cnc5ccnn5c4)c3)ncn2)c(OC)cc1N1CCOCC1" ?
< 50 nM

And the next one, "C=CC(=O)Nc1cc(Nc2cc(N3OCC[C@@H]3c3cc(F)cc(-c4cccs4)c3)ncn2)c(OC)cc1N(C)CCN(C)C" ?
< 50 nM

And the next one, "C=CC(=O)Nc1cc(Nc2cc(N3OCC[C@@H]3c3cc(F)cc(-c4cccnc4)c3)ncn2)c(OC)cc1N1CCN(C)CC1" ?
50 to 500 nM

And the next one, C=CC(=O)Nc1cc(Nc2cc(N3OCCC3c3cccc(-c4cnn(C)c4)c3)ncn2)c(OC)cc1N(C)CCN(C)C (stereo not shown) ?
< 50 nM

And the next one, "C=CC(=O)Nc1cc(Nc2cc(N3OCC[C@@H]3c3cccc(Oc4cccc(C(F)(F)F)c4)c3)ncn2)c(OC)cc1N1CCC(N2CCN(C3CC3)CC2)CC1" ?
< 50 nM

And the next one, C=CC(=O)Nc1cc(Nc2cc(N3OCCC3c3cccc(-c4cccc(C#N)c4)c3)ncn2)c(OC)cc1N1CCC(N2CCN(C3CC3)CC2)CC1 (stereo not shown) ?
< 50 nM

And the next one, "C=CC(=O)Nc1cc(Nc2cc(N3OCC[C@@H]3c3cccc(-c4cccc(F)c4)c3)ncn2)c(OC)cc1N1CC2(CN(C(=O)COC)C2)C1" ?
50 to 500 nM

And the next one, "C=CC(=O)Nc1cc(Nc2cc(N3OCC[C@@H]3c3cccc(-c4cccc(F)c4)c3)ncn2)c(OC)cc1N1CCNC2(CC2)C1" ?
< 50 nM

And the next one, C=CC(=O)Nc1cc(Nc2cc(N3OCCC3c3cccc(OCc4ccccn4)c3)ncn2)c(OC)cc1N(C)CCN(C)C (stereo not shown) ?
< 50 nM

* * *

System: SK-BR-3 cancer cells
experimentalProtocol: Inhibitory activity against proliferation of SK-BR-3 cancer cells (CellTiter-Glo)
Assay type: cell-based
condition: Homo sapiens, SK-BR-3, 120 h, ErbB2-overexpressing SK-BR-3 cells, 120 hours after treatment
recordedMetric: GI50

# input compound: C=CC(=O)Nc1cc(Nc2cc(N3OCCC3c3cc(F)cc(OCc4nccs4)c3)ncn2)c(OC)cc1N1CCN(C)CC1 (stereo not drawn) ; wanted: its GI50
< 50 nM

And the next one, C=CC(=O)Nc1cc(Nc2cc(N3OCCC3c3cccc(-c4ccoc4)c3)ncn2)c(OC)cc1N1CCC(N2CCN(C3CC3)CC2)CC1 (stereo not drawn) ?
< 50 nM

And the next one, "C=CCN1CCN(c2cc(OC)c(Nc3cc(N4OCC[C@@H]4c4cccc(-c5cc(F)cc(F)c5)c4)ncn3)cc2NC(=O)C=C)CC1" ?
< 50 nM

And the next one, "C=CC(=O)Nc1cc(Nc2cc(N3OCC[C@@H]3c3cccc(-c4cccc(F)c4)c3)ncn2)c(OC)cc1N1CC2CCC(C1)N2C1CC1" ?
50 to 500 nM

And the next one, "C=CC(=O)Nc1cc(Nc2cc(N3OCC[C@@H]3c3cccc(-c4cnc5ccnn5c4)c3)ncn2)c(OC)cc1N(C)CCN(C)C" ?
< 50 nM

And the next one, "C=CC(=O)Nc1cc(Nc2cc(N3OCC[C@@H]3c3cccc(-c4cccc(F)c4)c3)ncn2)c(OC)cc1N1CCN(C)[C@@H](C)C1" ?
< 50 nM
